Catalogue of compounds with associated Cmax
experiment: clinical; settings: human

{"columns": ["Compound", "Cmax, nM"],
 "data": [
  ["C[C@H](CCC(=O)O)[C@H]1CC[C@H]2[C@@H]3[C@H](O)C[C@@H]4C[C@H](O)CC[C@]4(C)[C@H]3CC[C@]12C [CHENODIOL]", 8000],
  ["C[C@H]1C[C@H]2[C@@H]3CCC4=CC(=O)C=C[C@]4(C)[C@@]3(Cl)[C@@H](O)C[C@]2(C)[C@@]1(O)C(=O)CO [BECLOMETHASONE]", 0.2],
  ["CCCN(CCC)C(=O)Cc1c(-c2ccc(Cl)cc2)nc2ccc(Cl)cn12 [ALPIDEM]", 285]
]}
